Data origin, for the record: paper PMC7529893

- study.target: T1, GST-MAGE-A11 MHD (human MAGE-A11 MHD amino acid 218-429) (human, UniProt P43364 218-429)
- T1 chain: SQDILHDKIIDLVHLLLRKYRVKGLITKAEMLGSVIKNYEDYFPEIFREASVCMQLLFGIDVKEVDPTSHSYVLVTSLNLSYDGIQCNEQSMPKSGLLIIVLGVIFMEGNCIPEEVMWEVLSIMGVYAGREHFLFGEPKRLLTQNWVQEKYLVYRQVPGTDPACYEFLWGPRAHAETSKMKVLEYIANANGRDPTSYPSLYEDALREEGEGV
- assay.text: FRET
pIC50: −log10 of the molar value.
Lab note: anything with pIC50 at or over 6 counts as T; the rest go in F.

>>> assigned_class("ALVVVHQIRQLFQYQ (same inferred limits as m7) [PCF11_6 peptide F682A]")
"T"
>>> assigned_class("FLVVVHQIAQLFQYQ [PCF11_6 peptide R690A]")
"F"
>>> assigned_class("FLVVVHQIRQAFQYQ [PCF11_6 peptide L692A]")
"T"

Lab note: next binder to report on.
I'd appreciate it if you could say whether FLVVVHQIRQLAQYQ [PCF11_6 peptide F693A] has pIC50 at least equal to 6.
F
